# credit: patent US9055745B2

Test system: ctenocephalides felis
Assay: Efficacy of fatty acid methyl esters in water or acetone on glass paper (Table 14)
Assay type: in vivo
Settings: 1% in Acetone
recorded.metric: 2 hours Alive
Please respond with just the number, no unit label.

CCCCCCCCCCCC(=O)OC [Methyl laurate, lauric acid methyl ester] ... 0
CCCCCCCCCC(=O)OC [Methyl decanoate] ... 14
CCCCCCCC(=O)OC [Methyl octanoate] ... 8

Next up:
Req: Return 2 hours Alive for the following compound: CCCCCCCCC(=O)OC [Methyl nonanoate]
Resp: 9

----------
Each entry below lists one item and its recorded 2 hours Dead value.
Test system: ctenocephalides felis
Experiment: Efficacy of fatty acid methyl esters in water or acetone on glass paper (Table 14)
Type: in vivo
Settings: 1% in Acetone
Please respond with just the number, no unit label.

CCCCCCCCC(=O)OC [Methyl nonanoate] ... 0
CCCCCCCCCCCC(=O)OC [Methyl laurate, lauric acid methyl ester] ... 13
CCCCCCCC(=O)OC [Methyl octanoate] ... 0

Next up:
Req: Return 2 hours Dead for the following compound: CCCCCCCCCC(=O)OC [Methyl decanoate]
Resp: 0

----------
Each entry below lists one item and its recorded 5 Hours Dead value.
System: ctenocephalides felis
Assay: Efficacy of fatty acid methyl esters in water or acetone on glass paper (Table 14)
Assay type: in vivo
Details: 1% in Acetone
Please respond with just the number, no unit label.

Examples from the recorded data:
CCCCCCCCCCCC(=O)OC [Methyl laurate, lauric acid methyl ester] ... 13
CCCCCCCCC(=O)OC [Methyl nonanoate] ... 0
CCCCCCCCCC(=O)OC [Methyl decanoate] ... 0

Req: Under ctenocephalides felis, report 5 Hours Dead for CCCCCCCC(=O)OC [Methyl octanoate]
Resp: 0

----------
System: ctenocephalides felis
Assay: Efficacy of fatty acid methyl esters in water or acetone on glass paper (Table 14)
Format: in vivo
Conditions: 0.1% in Acetone
From the text: Further results are shown below in Table 14, regarding the efficacy of various fatty acid methyl and ester esters against fleas (ctenocephalides felis).
Each entry below lists one item and its recorded 2 hours Alive value.
Please respond with just the number, no unit label.

Examples from the recorded data:
CCCCCCCCC(=O)OC [Methyl nonanoate] ... 14
CCCCCCCCCCCC(=O)OC [Methyl laurate, lauric acid methyl ester] ... 15
CCCCCCCCCC(=O)OC [Methyl decanoate] ... 12

Next up:
Req: Return 2 hours Alive for the following molecule: CCCCCCCC(=O)OC [Methyl octanoate]
Resp: 16

----------
Each entry below lists one item and its recorded 20 hours Dead value.
System: ctenocephalides felis
Assay: Efficacy of fatty acid methyl esters in water or acetone on glass paper (Table 14)
Type: in vivo
Conditions: 1% in Acetone
Please respond with just the number, no unit label.

Req: Return 20 hours Dead for the following molecule: CCCCCCCCCCCC(=O)OC [Methyl laurate, lauric acid methyl ester]
Resp: 13

Req: Return 20 hours Dead for the following molecule: CCCCCCCCC(=O)OC [Methyl nonanoate]
Resp: 0

Req: Return 20 hours Dead for the following molecule: CCCCCCCC(=O)OC [Methyl octanoate]
Resp: 0

Req: Return 20 hours Dead for the following molecule: CCCCCCCCCC(=O)OC [Methyl decanoate]
Resp: 0

----------
Test system: ctenocephalides felis
Experiment: Efficacy of fatty acid methyl esters in water or acetone on glass paper (Table 14)
Type: in vivo
Conditions: 1% in Water
recorded.metric: 2 hours Dead
Please respond with just the number, no unit label.

Examples from the recorded data:
CCCCCCCCC(=O)OC [Methyl nonanoate] ... 0
CCCCCCCCCC(=O)OC [Methyl decanoate] ... 0
CCCCCCCC(=O)OC [Methyl octanoate] ... 0

Req: Return 2 hours Dead for the following molecule: CCCCCCCCCCCC(=O)OC [Methyl laurate, lauric acid methyl ester]
Resp: 0

----------
Tested on: ctenocephalides felis
Test: Efficacy of fatty acid methyl esters in water or acetone on glass paper (Table 14)
Type: in vivo
Conditions: 1% in Acetone
recorded.metric: 20 hours Alive
Please respond with just the number, no unit label.

Examples from the recorded data:
CCCCCCCCCC(=O)OC [Methyl decanoate] ... 14
CCCCCCCCC(=O)OC [Methyl nonanoate] ... 9
CCCCCCCCCCCC(=O)OC [Methyl laurate, lauric acid methyl ester] ... 0

Next up:
Req: Return 20 hours Alive for the following compound: CCCCCCCC(=O)OC [Methyl octanoate]
Resp: 8

----------
Test system: ctenocephalides felis
Assay: Efficacy of fatty acid methyl esters in water or acetone on glass paper (Table 14)
Format: in vivo
Details: 1% in Water
Each entry below lists one item and its recorded 2 hours Alive value.
Please respond with just the number, no unit label.

Examples from the recorded data:
CCCCCCCCCC(=O)OC [Methyl decanoate] ... 19
CCCCCCCCC(=O)OC [Methyl nonanoate] ... 14
CCCCCCCC(=O)OC [Methyl octanoate] ... 5

Next up:
Req: Return 2 hours Alive for the following molecule: CCCCCCCCCCCC(=O)OC [Methyl laurate, lauric acid methyl ester]
Resp: 11

----------
System: ctenocephalides felis
Test: Efficacy of fatty acid methyl esters in water or acetone on glass paper (Table 14)
Assay type: in vivo
Conditions: 0.1% in Acetone
Each entry below lists one item and its recorded 20 hours Alive value.
Please respond with just the number, no unit label.

Examples from the recorded data:
CCCCCCCCC(=O)OC [Methyl nonanoate] ... 14
CCCCCCCCCC(=O)OC [Methyl decanoate] ... 12
CCCCCCCC(=O)OC [Methyl octanoate] ... 16

Next up:
Req: Return 20 hours Alive for the following compound: CCCCCCCCCCCC(=O)OC [Methyl laurate, lauric acid methyl ester]
Resp: 15
